Tested on: HS 578T breast
Test: NCI tumour cell line growth inhibition, 48 h
Label scheme for TGI: lower than 60 µM is n, 60 µM and above is y.

Solved cases below.
| molecule | assayed_target | assigned_category |
| --- | --- | --- |
| CC(C)c1ccc(/C=C2\CSCC3=C2N=C2SCC(=O)N2C3c2ccc(C(C)C)cc2)cc1 (stereo not given) | HS 578T breast | y |
| Cc1ccc(S(=O)(=O)NC(CO)C(=O)O)cc1 (stereo not given) | HS 578T breast | y |
| COc1cc2c3c(cc(Cl)nc3c1OC)C(O)(CC(=O)c1ccccc1)C(=O)N2 (stereo not given) | HS 578T breast | y |
| O=C(N/N=C\c1ccc([N+](=O)[O-])s1)c1ccncc1 | HS 578T breast | n |
| CN1CCC2(CC1)C(=NC1CCCCC1)NC(=O)N2c1ccccc1 | HS 578T breast | y |

Decide: TGI of Cc1ccc(-c2n[nH]c(=O)c3noc(-c4ccc(C)cc4)c23)cc1 >= 60 µM?
n

These entries and their values trace back to PubChem BioAssay (NCI).
